Reference source: patent EP4385979A1

# tested-target: human NaV1.8 (Homo sapiens)
# procedure-text: Electrophysiology: voltage-clamp recordings, whole-cell patch clamp on Qube384 automated platform
# measurement-setup: HEK-NaV1.8 (NM 006514.1) with b3 recombinant cell line, multi hole plates, ambient room temperature, read-out: Potency category (human NaV1.8 IC50)
observation-type: IC50

Example compounds with recorded IC50:
- NC(=O)c1cc(NC(=O)c2c(C(F)(F)F)c(C3CC3)nn2CC23CC(C(F)(F)F)(C2)C3)ccn1: ≤ 100 nM
- CS(=O)(=O)c1cc(NC(=O)c2c(C(F)(F)F)c(C3CC3)nn2CC23CC(CO2)C3)ccn1: 100 to 1000 nM
- Cc1nn(CC23CC(CO2)C3)c(C(=O)Nc2cccc(S(N)(=O)=O)c2)c1C(F)(F)F: 1000 to 10000 nM
- CC12COC(Cn3nc(C4CC4)c(C(F)(F)F)c3C(=O)Nc3ccnc(S(C)(=O)=O)c3)(C1)C2: 100 to 1000 nM
- Cc1c(C(C)(F)F)nn(CC23CC(C(F)(F)F)(C2)C3)c1C(=O)Nc1ccnc(S(C)(=O)=O)c1: ≤ 100 nM

get_value(item= `Cc1c(C(C)(F)F)nn(CC23CC(C(F)(F)F)(C2)C3)c1C(=O)Nc1ccnc(C(N)=O)c1` , readout=IC50) returns ≤ 100 nM

get_value(item= Cc1c(C(C)(F)F)nn(CC2(C)CC(F)(F)CC2C)c1C(=O)Nc1ccnc(C(N)=O)c1 (single isomer, unassigned) [Example 10c] , readout=IC50) returns ≤ 100 nM

get_value(item= `Cc1c(C(F)(F)F)nn(CC23CC(C(F)(F)F)(C2)C3)c1C(=O)Nc1ccnc(C(N)=O)c1` , readout=IC50) returns ≤ 100 nM

get_value(item= `CC12COC(Cn3nc(C4CC4)c(C(F)(F)F)c3C(=O)Nc3ccnc(C(N)=O)c3)(C1)C2` , readout=IC50) returns ≤ 100 nM

----------
# tested-target: human NaV1.8 (Homo sapiens, UniProt Q9Y5Y9)
# Sequence (Q9Y5Y9 whole entry): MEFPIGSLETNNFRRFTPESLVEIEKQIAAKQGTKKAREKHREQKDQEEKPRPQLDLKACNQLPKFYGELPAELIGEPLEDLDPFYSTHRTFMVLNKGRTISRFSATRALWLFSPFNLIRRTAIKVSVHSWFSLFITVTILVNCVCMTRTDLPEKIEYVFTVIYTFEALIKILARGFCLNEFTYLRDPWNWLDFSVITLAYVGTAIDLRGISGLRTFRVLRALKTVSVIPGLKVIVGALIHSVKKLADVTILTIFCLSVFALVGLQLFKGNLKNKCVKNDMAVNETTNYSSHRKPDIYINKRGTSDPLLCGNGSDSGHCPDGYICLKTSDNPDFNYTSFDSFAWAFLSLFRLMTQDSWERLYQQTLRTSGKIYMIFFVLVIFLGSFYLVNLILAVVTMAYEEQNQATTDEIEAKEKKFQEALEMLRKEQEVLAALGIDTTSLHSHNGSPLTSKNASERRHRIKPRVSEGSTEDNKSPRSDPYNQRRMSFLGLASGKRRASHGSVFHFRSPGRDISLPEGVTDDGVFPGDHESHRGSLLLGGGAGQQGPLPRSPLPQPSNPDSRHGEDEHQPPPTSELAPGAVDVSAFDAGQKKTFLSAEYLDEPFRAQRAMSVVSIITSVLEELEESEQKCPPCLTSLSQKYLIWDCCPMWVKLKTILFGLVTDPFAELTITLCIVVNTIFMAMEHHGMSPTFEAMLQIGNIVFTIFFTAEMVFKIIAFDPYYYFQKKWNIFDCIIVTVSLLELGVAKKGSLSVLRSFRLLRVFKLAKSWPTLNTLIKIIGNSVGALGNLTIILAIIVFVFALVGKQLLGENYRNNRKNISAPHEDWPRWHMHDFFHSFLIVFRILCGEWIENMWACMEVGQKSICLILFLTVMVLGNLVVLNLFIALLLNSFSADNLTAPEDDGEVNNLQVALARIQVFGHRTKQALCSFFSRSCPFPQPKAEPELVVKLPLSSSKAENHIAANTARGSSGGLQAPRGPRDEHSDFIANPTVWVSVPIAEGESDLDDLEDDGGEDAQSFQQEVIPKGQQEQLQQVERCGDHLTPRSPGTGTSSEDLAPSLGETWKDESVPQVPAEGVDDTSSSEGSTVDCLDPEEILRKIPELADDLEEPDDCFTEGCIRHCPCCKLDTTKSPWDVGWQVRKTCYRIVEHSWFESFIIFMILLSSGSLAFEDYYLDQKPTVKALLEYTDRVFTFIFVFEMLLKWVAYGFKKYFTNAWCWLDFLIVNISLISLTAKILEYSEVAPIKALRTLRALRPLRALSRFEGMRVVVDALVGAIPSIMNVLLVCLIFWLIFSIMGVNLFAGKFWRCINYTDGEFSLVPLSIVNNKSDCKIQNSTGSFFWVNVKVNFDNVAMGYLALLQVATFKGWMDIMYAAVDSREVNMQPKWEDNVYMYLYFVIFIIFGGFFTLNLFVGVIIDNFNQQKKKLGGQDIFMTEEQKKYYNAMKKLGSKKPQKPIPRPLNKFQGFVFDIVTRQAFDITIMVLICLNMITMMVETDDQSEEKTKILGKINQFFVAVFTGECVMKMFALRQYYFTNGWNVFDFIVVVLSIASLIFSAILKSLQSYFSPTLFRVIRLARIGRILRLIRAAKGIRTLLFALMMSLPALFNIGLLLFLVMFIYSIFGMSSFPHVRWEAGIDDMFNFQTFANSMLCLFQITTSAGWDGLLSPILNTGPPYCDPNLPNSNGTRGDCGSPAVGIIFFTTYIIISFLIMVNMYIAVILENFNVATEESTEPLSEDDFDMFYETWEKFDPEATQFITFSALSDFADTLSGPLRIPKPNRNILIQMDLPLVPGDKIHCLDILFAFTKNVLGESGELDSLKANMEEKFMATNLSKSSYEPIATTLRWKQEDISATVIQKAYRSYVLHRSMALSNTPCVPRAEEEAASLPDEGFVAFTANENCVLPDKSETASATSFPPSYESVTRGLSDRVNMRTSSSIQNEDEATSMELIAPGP
# procedure-text: Electrophysiology: voltage-clamp recordings, whole-cell patch clamp on Qube384 automated platform
# measurement-setup: HEK-NaV1.8 (NM 006514.1) with b3 recombinant cell line, multi hole plates, ambient room temperature, read-out: Potency category (human NaV1.8 IC50)
pIC50: −log10 of the molar value.
The following compounds are shown together with reported pIC50 values.

Example compounds with recorded pIC50:
• NC(=O)c1cc(NC(=O)c2c(C(F)(F)F)c(C3CC3)nn2CC23CC(F)(C2)C3)ccn1 [Example 15] = ≥ 7.00
• CC12CC(Cn3nc(C4CC4)c(C(F)(F)F)c3C(=O)Nc3ccnc(S(C)(=O)=O)c3)(CO1)C2 [Example 23] = 6.00 to 7.00
• CS(=O)(=O)n1cc(NC(=O)c2c(C(F)(F)F)cnn2CC2CC3(CC3)C2)cn1 [Example 48] = 5.00 to 6.00
• COC12CC(Cn3nc(C4CC4)c(C(F)(F)F)c3C(=O)Nc3ccnc(S(C)(=O)=O)c3)(C1)C2 [Example 20] = 6.00 to 7.00
• NS(=O)(=O)c1cccc(NC(=O)c2c(C(F)(F)F)cnn2CC2CC3(CC3)C2)c1 [Example 34] = 6.00 to 7.00

get_value(item= Cc1c(C(C)(F)F)nn(CC2(C)CC(F)(F)CC2C)c1C(=O)Nc1ccnc(C(N)=O)c1 (single isomer, unassigned) [Example 10b] , readout=pIC50) returns ≥ 7.00

get_value(item= Cc1nn(CC23CC(F)(C2)C3)c(C(=O)Nc2ccnc(C(N)=O)c2)c1C(F)(F)F [Example 1] , readout=pIC50) returns 6.00 to 7.00

----------
# tested-target: human NaV1.8 (Homo sapiens)
# procedure-text: Electrophysiology: voltage-clamp recordings, whole-cell patch clamp on Qube384 automated platform
# measurement-setup: HEK-NaV1.8 (NM 006514.1) with b3 recombinant cell line, multi hole plates, ambient room temperature, read-out: Potency category (human NaV1.8 IC50)
# Experimental: Electrophysiology: Voltage-Clamp recordings The following NaV1.8 recombinant cell line was used for recordings: HEK-NaV1.8 (NM 006514.1) with b3 (NM_018400.3). Sodium currents were measured using the patch clamp technique in the whole-cell configuration using the Qube384 (Sophion A/S, Copenhagen, Denmark) automated voltage clamp platform. […] The adjusted inhibition was calculated as follows: % Inhibitioncorrected = 100 × (NormCPD −NormVEH)/(100−NormVEH) [formula] […]
The following compounds are shown together with reported IC50 values.

Example compounds with recorded IC50:
- Cc1c(C(C)(F)F)nn(CC2(C)CC(F)(F)CC2C)c1C(=O)Nc1ccnc(S(N)(=O)=O)c1 (single isomer, unassigned) [Example 43b]: ≤ 0.1 µM
- CC12CC(Cn3ncc(C(F)(F)F)c3C(=O)Nc3cccc(S(N)(=O)=O)c3)(CO1)C2 [Example 31]: 1 to 10 µM
- NC(=O)c1cc(NC(=O)c2c(C(F)(F)F)cnn2CC23CC(C2)C3)ccc1F [Example 38]: 1 to 10 µM
- Cc1nn(CC23CCC(C2)C3)c(C(=O)Nc2ccc(F)c(C(N)=O)c2)c1C(F)(F)F [Example 36]: ≤ 0.1 µM
- Cc1nn(CC23CC(CO2)C3)c(C(=O)Nc2ccc(F)c(C(N)=O)c2)c1C(F)(F)F [Example 39]: 0.1 to 1 µM

Shift focus to the following entry.
get_value(item= Cc1c(C(C)(F)F)nn(CC2(C)CC(F)(F)CC2C)c1C(=O)Nc1ccnc(C(N)=O)c1 (single isomer, unassigned) [Example 10d] , readout=IC50) returns ≤ 0.1 µM

----------
# tested-target: human NaV1.8 (Homo sapiens)
# procedure-text: Electrophysiology: voltage-clamp recordings, whole-cell patch clamp on Qube384 automated platform
# measurement-setup: HEK-NaV1.8 (NM 006514.1) with b3 recombinant cell line, multi hole plates, ambient room temperature, read-out: Potency category (human NaV1.8 IC50)
observation-type: IC50

Example molecules with recorded IC50:
• NS(=O)(=O)c1cccc(NC(=O)c2c(C(F)(F)F)cnn2CC23CC(CO2)C3)c1 = 1000 to 10000 nM
• COC12CC(Cn3nc(C4CC4)c(C(F)(F)F)c3C(=O)Nc3ccnc(C(N)=O)c3)(C1)C2 = 100 to 1000 nM
• Cc1c(C(C)(F)F)nn(CC2(C)CC(F)(F)CC2C)c1C(=O)Nc1ccnc(S(N)(=O)=O)c1 (single isomer, unassigned) [Example 43c] = ≤ 100 nM
• CS(=O)(=O)c1cc(NC(=O)c2c(C(F)(F)F)c(C3CC3)nn2CC23CC(C(F)(F)F)(C2)C3)ccn1 = ≤ 100 nM
• Cc1c(C(F)(F)F)nn(CC23CC(C(F)(F)F)(C2)C3)c1C(=O)Nc1ccnc(S(C)(=O)=O)c1 = 100 to 1000 nM
• Cc1nn(CC23CC(C2)C3)c(C(=O)Nc2ccc(F)c(C(N)=O)c2)c1C(F)(F)F = 100 to 1000 nM
• CC1(C)CC(Cn2nc(C3CC3)c(C(F)(F)F)c2C(=O)Nc2ccnc(S(C)(=O)=O)c2)O1 (single isomer, unassigned) [Example 22a] = 1000 to 10000 nM
• CS(=O)(=O)n1cc(NC(=O)c2c(C(F)(F)F)cnn2CC23CC(C2)C3)cn1 = 1000 to 10000 nM
• CS(=O)(=O)c1cc(NC(=O)c2c(C(F)(F)F)c(C3CC3)nn2CC23CC(F)(C2)C3)ccn1 = ≤ 100 nM
• Cc1nn(CC23CC(C(F)(F)F)(C2)C3)c(C(=O)Nc2ccnc(C(N)=O)c2)c1C(F)(F)F = ≤ 100 nM

get_value(item= `NC(=O)c1cc(NC(=O)c2c(C(F)(F)F)c(C3CC3)nn2CC23CC(CO2)C3)ccn1` , readout=IC50) returns 100 to 1000 nM

get_value(item= `CS(=O)(=O)n1cc(NC(=O)c2c(C(F)(F)F)cnn2CC23CCC(C2)C3)cn1` , readout=IC50) returns 100 to 1000 nM

----------
The following molecules are shown together with reported IC50 values.
# tested-target: human NaV1.8 (Homo sapiens)
# procedure-text: Electrophysiology: voltage-clamp recordings, whole-cell patch clamp on Qube384 automated platform
# measurement-setup: HEK-NaV1.8 (NM 006514.1) with b3 recombinant cell line, multi hole plates, ambient room temperature, read-out: Potency category (human NaV1.8 IC50)

Example molecules with recorded IC50:
* Cc1c(C(C)(F)F)nn(CC2(C)CC(F)(F)CC2C)c1C(=O)Nc1ccnc(S(N)(=O)=O)c1 (single isomer, unassigned) [Example 43d] | ≤ 100 nM
* Cc1nn(CC23CC(C(F)(F)F)(C2)C3)c(C(=O)Nc2ccnc(S(C)(=O)=O)c2)c1C(F)(F)F [Example 26] | 100 to 1000 nM
* NS(=O)(=O)c1cccc(NC(=O)c2c(C(F)(F)F)cnn2CC23CC(C2)C3)c1 [Example 32] | 100 to 1000 nM
* NC(=O)c1cc(NC(=O)c2c(C(F)(F)F)cnn2CC23CC(CO2)C3)ccc1F [Example 37] | 1000 to 10000 nM
* CC1(C)CC(Cn2nc(C3CC3)c(C(F)(F)F)c2C(=O)Nc2ccnc(C(N)=O)c2)O1 (single isomer, unassigned) [Example 17a] | 100 to 1000 nM

Shift focus to the following entry.
get_value(item= Cc1c(C(C)(F)F)nn(CC23CC(F)(C2)C3)c1C(=O)Nc1ccnc(C(N)=O)c1 [Example 2] , readout=IC50) returns 100 to 1000 nM
